- assay_system: UniProt P04585
- procedure_summary: HIV-1 Reverse Transcriptase Assay: Inhibitor IC50 Determination
- Format: biochemical
pIC50: −log10 of the molar value.
measured_attribute: pIC50

[[record]]
smiles_text = "CC(C)n1nc(COC(N)=O)c(Cc2ccncc2)c1Sc1cc(Cl)cc(Cl)c1"
reported_measurement = 7.49


###

In this section, each of the molecules is paired with its reported IC50.
- assay_system: HIV-1 RT (Human immunodeficiency virus type 1 group M subtype B, UniProt P04585)
- procedure_summary: HIV-1 Reverse Transcriptase Assay: Inhibitor IC50 Determination
- Type: biochemical
- condition_label: purified recombinant enzyme, poly(rA)/oligo(dT)16 template-primer, 37° C. 30 min; read-out: RT IC50/nM
measured_attribute: IC50 (nM)

[[record]]
smiles_text = "CC(C)n1nc(CN)c(Cc2ccncc2)c1Sc1cc(Cl)cc(Cl)c1"
quantity_unit = "nM"
reported_measurement = 714

[[record]]
smiles_text = "CC(C)n1nc(CNS(C)(=O)=O)c(Cc2ccncc2)c1Sc1cc(Cl)cc(Cl)c1"
quantity_unit = "nM"
reported_measurement = 7920

[[record]]
smiles_text = "CC(C)n1nc(CO)c(Cc2ccncc2)c1Sc1cc(Cl)cc(Cl)c1"
quantity_unit = "nM"
reported_measurement = 62

[[record]]
smiles_text = "CC(C)n1nc(COC(N)=O)c(Cc2cccs2)c1Sc1cc(Cl)cc(Cl)c1"
quantity_unit = "nM"
reported_measurement = 211

[[record]]
smiles_text = "CCc1c(COC(N)=O)nn(C(C)C)c1Sc1cc(Cl)cc(Cl)c1"
quantity_unit = "nM"
reported_measurement = 61

[[record]]
smiles_text = "CC(C)n1nc(CO)c(COCc2cccc(C#N)c2)c1Sc1cc(Cl)cc(Cl)c1"
quantity_unit = "nM"
reported_measurement = 250

[[record]]
smiles_text = "CC(C)n1nc(CO)c(Cc2ccncc2)c1Sc1cc(F)cc(F)c1"
quantity_unit = "nM"
reported_measurement = 206

[[record]]
smiles_text = "COC(=O)NCc1nn(C(C)C)c(Sc2cc(Cl)cc(Cl)c2)c1Cc1ccncc1"
quantity_unit = "nM"
reported_measurement = 525

[[record]]
smiles_text = "CCn1nc(CO)c(Cc2ccncc2)c1Sc1cc(Cl)cc(Cl)c1"
quantity_unit = "nM"
reported_measurement = 183

[[record]]
smiles_text = "CC(C)n1nc(CO)c(Cc2ccc(F)c(F)c2)c1Sc1cc(Cl)cc(Cl)c1"
quantity_unit = "nM"
reported_measurement = 123


###

- assay_system: HIV-1 RT (Human immunodeficiency virus type 1 group M subtype B)
- procedure_summary: HIV-1 Reverse Transcriptase Assay: Inhibitor IC50 Determination
- Format: biochemical
- condition_label: purified recombinant enzyme, poly(rA)/oligo(dT)16 template-primer, 37° C. 30 min; read-out: RT IC50/nM
// reported IC50 per item
measured_attribute: IC50 (nM)

[[record]]
smiles_text = "CC(C)n1nc(COC(N)=O)c(COCc2ccncc2)c1Sc1cc(Cl)cc(Cl)c1"
quantity_unit = "nM"
reported_measurement = 99

[[record]]
smiles_text = "CC(C)n1nc(CNC(N)=O)c(Cc2ccncc2)c1Sc1cc(Cl)cc(Cl)c1"
quantity_unit = "nM"
reported_measurement = 44

[[record]]
smiles_text = "Cc1ncc(Br)c(Cc2c(CO)nn(C(C)C)c2Sc2cc(Cl)cc(Cl)c2)n1"
quantity_unit = "nM"
reported_measurement = 518

[[record]]
smiles_text = "COc1cc(Cc2c(CO)nn(C(C)C)c2Sc2cc(Cl)cc(Cl)c2)ccn1"
quantity_unit = "nM"
reported_measurement = 51

[[record]]
smiles_text = "CC(C)n1nc(COC(N)=O)c(Cc2ccncc2)c1Sc1cc(Cl)cc(Br)c1"
quantity_unit = "nM"
reported_measurement = 31

[[record]]
smiles_text = "CC(C)n1nc(COC(N)=O)c(CO)c1Sc1cc(Cl)cc(Cl)c1"
quantity_unit = "nM"
reported_measurement = 6300

[[record]]
smiles_text = "CC(C)n1nc(CO)c(Cc2cccs2)c1Sc1cc(Cl)cc(Cl)c1"
quantity_unit = "nM"
reported_measurement = 434

